Just for reference, the supplement of paper PMC9112550 is where these values come from.

Test system: Escherichia coli TOP10
protocol-summary: shrunken log2 fold change of peptide-encoding DNA abundance (4.5 h post-induction vs induction); higher = less antimicrobial activity (less host growth inhibition)
condition-set: time post-induction: 4.5 h; library: site-saturation at positions 5, 18, 19, 20
shrunken log2 fold change reference
Answer with a bare number; do not write a unit.

| entry-sequence | tested-target | assay-value |
| --- | --- | --- |
| RRIRSRPPRLPRPRPRPECEPRP | Escherichia coli TOP10 | -0.0828 |

QUERY: Value wanted: shrunken log2 fold change (Escherichia coli TOP10) of entry RRIRRRPPRLPRPRPRPYAYPRP
RESULT: -0.189

QUERY: # query: shrunken log2 fold change | item RRIRCRPPRLPRPRPRPELLPRP | system: Escherichia coli TOP10;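 note: peptides expressed intracellularly from a pBAD plasmid library in pooled LB shake-flask culture, induced with 0.3% L-arabinose, DNA abundance read by NGS, three biological replicates, DESeq2 with apeglm shrinkage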
RESULT: -0.0954
